tested on: Aspergillus fumigatus
Provide the recorded MIC for the entries that follow.

Recorded MIC, per entry:
Molecule | Observed
CCSc1nc2cc(C)ccc2c(=O)n1-c1ccccc1OC | < 1 µg/mL
COc1ccc2nc(SC(C)C)n(-c3ccccc3OC)c(=O)c2c1 | 1 to 10 µg/mL
COc1ccccc1-n1c(SC(C)C)nc2cc(C)ccc2c1=O | < 1 µg/mL

Look up MIC for the entries below, preserving their order.
1. COc1ccccc1-n1c(SC(C)C)nc2cccc(OC)c2c1=O
2. CCSc1nc2cccc(C)c2c(=O)n1-c1ccccc1OC
3. CCc1ccccc1-n1c(SC(C)C)nc2ccccc2c1=O
4. COc1ccccc1-n1c(SC(C)C)nc2ccc(N(C)C)cc2c1=O
5. COc1ccccc1-n1c(SC(C)C)nc2ccccc2c1=O
6. CC(C)Sc1nc2ccccc2c(=O)n1-c1ccccc1N(C)C

Solution:
["< 1 µg/mL", "< 1 µg/mL", "< 1 µg/mL", "1 to 10 µg/mL", "< 1 µg/mL", "1 to 10 µg/mL"]

###

Provide the recorded MIC for the entries that follow.
test system: Aspergillus terreus

Molecule | MIC
COc1ccccc1-n1c(SC(C)C)nc2ccc(N(C)C)cc2c1=O | 1 to 10 µg/mL

Look up MIC for the entries below, preserving their order.
1. COc1ccccc1-n1c(SC(C)C)nc2cc(C)ccc2c1=O
2. COc1ccccc1-n1c(SC(C)C)nc2cccc(C)c2c1=O
3. COc1ccccc1-n1c(SC(C)C)nc2cccc(OC)c2c1=O
4. CCSc1nc2ccccc2c(=O)n1-c1ccccc1CC
5. CCSc1nc2cccc(C)c2c(=O)n1-c1ccccc1OC

Solution:
1. < 1 µg/mL
2. < 1 µg/mL
3. < 1 µg/mL
4. 1 to 10 µg/mL
5. < 1 µg/mL

###

tested on: Aspergillus flavus; assay: MIC in YAG medium, A. flavus; type: cell-based; details: 24 hrs at 35° C., >70% growth inhibition, read-out: MIC grade, A. flavus
Quantity name: MIC

Recorded MIC, per entry:
Molecule | Observed
COc1ccccc1-n1c(SC(C)C)nc2cc(C)ccc2c1=O | < 1 mg/L
COc1ccccc1-n1c(SC(C)C)nc2cccc(OC)c2c1=O | 1 to 10 mg/L
COc1ccccc1-n1c(SC(C)C)nc2cccc(C)c2c1=O | > 10 mg/L
CC(C)Sc1nc2ccccc2c(=O)n1-c1ccccc1C(C)C | > 10 mg/L
COc1ccccc1-n1c(SC(C)C)nc2ccc(N(C)C)cc2c1=O | > 10 mg/L

Look up MIC for the entries below, preserving their order.
1. CCSc1nc2cccc(OC)c2c(=O)n1-c1ccccc1OC
2. COc1ccccc1-n1c(SC(C)C)nc2ccc(C)cc2c1=O
3. CCSc1nc2cc(C)ccc2c(=O)n1-c1ccccc1OC
4. CCSc1nc2ccccc2c(=O)n1-c1ccccc1C(C)C
5. CCSc1nc2cccc(C)c2c(=O)n1-c1ccccc1OC

Solution:
["1 to 10 mg/L", "> 10 mg/L", "< 1 mg/L", "> 10 mg/L", "1 to 10 mg/L"]

Look up MIC for the entries below, preserving their order.
1. COc1ccccc1-n1c(SC(C)C)nc2ccccc2c1=O
2. CC(C)Sc1nc2ccccc2c(=O)n1-c1ccccc1N(C)C
3. CCSc1nc2ccccc2c(=O)n1-c1ccccc1CC
4. COc1ccc2nc(SC(C)C)n(-c3ccccc3OC)c(=O)c2c1
5. CCc1ccccc1-n1c(SC(C)C)nc2ccccc2c1=O

Solution:
["> 10 mg/L", "> 10 mg/L", "> 10 mg/L", "> 10 mg/L", "> 10 mg/L"]

###

Provide the recorded MIC for the entries that follow.
tested on: Aspergillus fumigatus

Molecule | Target system | MIC
CC(C)Sc1nc2ccccc2c(=O)n1-c1ccccc1C(C)C | Aspergillus fumigatus | < 1 µg/mL

Look up MIC for the entries below, preserving their order.
1. COc1ccccc1-n1c(SC(C)C)nc2ccc(C)cc2c1=O
2. CCSc1nc2ccccc2c(=O)n1-c1ccccc1C(C)C
3. CCSc1nc2cccc(OC)c2c(=O)n1-c1ccccc1OC

Solution:
1. < 1 µg/mL
2. < 1 µg/mL
3. < 1 µg/mL

Look up MIC for the entries below, preserving their order.
1. COc1ccccc1-n1c(SC(C)C)nc2cccc(C)c2c1=O
2. CCSc1nc2ccccc2c(=O)n1-c1ccccc1CC

Solution:
1. < 1 µg/mL
2. 1 to 10 µg/mL

###

Quick record of MIC values for Aspergillus fumigatus AF293.

Recorded MIC, per entry:
Molecule | Target system | Observed
COc1ccccc1-n1c(SC(C)C)nc2ccc(C)cc2c1=O | Aspergillus fumigatus AF293 | 1 to 10 µg/mL
CCSc1nc2ccccc2c(=O)n1-c1ccccc1C(C)C | Aspergillus fumigatus AF293 | < 1 µg/mL
CCc1ccccc1-n1c(SC(C)C)nc2ccccc2c1=O | Aspergillus fumigatus AF293 | < 1 µg/mL
COc1ccccc1-n1c(SC(C)C)nc2ccc(N(C)C)cc2c1=O | Aspergillus fumigatus AF293 | > 10 µg/mL
COc1ccc2nc(SC(C)C)n(-c3ccccc3OC)c(=O)c2c1 | Aspergillus fumigatus AF293 | > 10 µg/mL

Look up MIC for the entries below, preserving their order.
1. CC(C)Sc1nc2ccccc2c(=O)n1-c1ccccc1N(C)C
2. COc1ccccc1-n1c(SC(C)C)nc2cc(C)ccc2c1=O
3. COc1ccccc1-n1c(SC(C)C)nc2cccc(C)c2c1=O
4. COc1ccccc1-n1c(SC(C)C)nc2ccccc2c1=O

Solution:
1 to 10 µg/mL
1 to 10 µg/mL
1 to 10 µg/mL
1 to 10 µg/mL

###

Provide the recorded MIC for the entries that follow.
system: Aspergillus terreus AT49

Compound | MIC
COc1ccccc1-n1c(SC(C)C)nc2cc(C)ccc2c1=O [Compound Example 1] | < 1 µg/mL
COc1ccccc1-n1c(SC(C)C)nc2ccc(C)cc2c1=O [Compound Example 2] | 1 to 10 µg/mL
CCSc1nc2cc(C)ccc2c(=O)n1-c1ccccc1OC [Compound Example 5] | 1 to 10 µg/mL
COc1ccccc1-n1c(SC(C)C)nc2cccc(C)c2c1=O [Compound Example 3] | 1 to 10 µg/mL
CCSc1nc2ccccc2c(=O)n1-c1ccccc1CC [Compound Example 13] | > 10 µg/mL

Look up MIC for the entries below, preserving their order.
1. CCSc1nc2cccc(C)c2c(=O)n1-c1ccccc1OC [Compound Example 14]
2. COc1ccc2nc(SC(C)C)n(-c3ccccc3OC)c(=O)c2c1 [Compound Example 10]
3. CCc1ccccc1-n1c(SC(C)C)nc2ccccc2c1=O [Compound Example 9]
4. COc1ccccc1-n1c(SC(C)C)nc2ccc(N(C)C)cc2c1=O [Compound Example 6]
5. CC(C)Sc1nc2ccccc2c(=O)n1-c1ccccc1C(C)C [Compound Example 8]
6. COc1ccccc1-n1c(SC(C)C)nc2ccccc2c1=O [Compound Example 7]

Solution:
1 to 10 µg/mL
> 10 µg/mL
> 10 µg/mL
> 10 µg/mL
1 to 10 µg/mL
1 to 10 µg/mL

###

Quick record of MIC values for Aspergillus terreus AT49.

Recorded MIC, per entry:
Molecule | Quantity name | Observed
COc1ccccc1-n1c(SC(C)C)nc2cccc(OC)c2c1=O [Compound Example 4] | MIC | 1 to 10 µg/mL
CCSc1nc2ccccc2c(=O)n1-c1ccccc1C(C)C [Compound Example 15] | MIC | > 10 µg/mL
CCSc1nc2cccc(OC)c2c(=O)n1-c1ccccc1OC [Compound Example 12] | MIC | 1 to 10 µg/mL

Input CC(C)Sc1nc2ccccc2c(=O)n1-c1ccccc1N(C)C [Compound Example 11] . Output MIC: > 10 µg/mL

This collection of values is drawn from patent US9034887B2.
